Assay: Metabolic stability in human hepatic microsome
Type: in vitro ADME
Conditions: microsomes, pH 7.4; human hepatic microsome, NADPH(+); read-out: CL NADPH(+)
Starred links: 1 amine or outer side, 2 acyl side, 3 side chain; linkers in the order of their positions; H or OH if unused. Positions of bridges follow the written chain, without caps; N, C: chain ends. Non-standard residues stand in square brackets, D forms with d. Residues, ends and D or L forms follow the SMILES beside them. *: point of attachment. NMeF = CN[C@@H](Cc1ccccc1)C(=O)O; NMeβAla = CN(CCC(=O)[*:2])[*:1]; Aoc(2) = CCCCCC[C@H](N)C(=O)O; NMeL = CN[C@@H](CC(C)C)C(=O)O; NMeA = CN[C@@H](C)C(=O)O; Piperidide = C1CCN(*)CC1; β3hA = C[C@H](N)CC(=O)O; Sar = CNCC(=O)O
Observation Type: microsomal CLint at 1 uM (µL/min/mg)
Numbers only, in µL/min/mg.

CC[C@H](C)[C@@H]1NC(=O)[C@H](CC(C)C)N(C)C(=O)CN(C)C(=O)[C@H]([C@@H](C)O)NC(=O)[C@H](C)N(C)C(=O)C[C@@H](C(=O)N(C)[C@@H](C)C(=O)N2CCC[C@H]2C(=O)N[C@@H](C)C(=O)N2CCCCC2)NC(=O)[C@H](CC(C)C)N(C)C(=O)[C@H](Cc2ccccc2)N(C)C(=O)[C@H](CC(C)C)N(C)C1=O [DP-661] ([NMeA]T[Sar][NMeL]I[NMeL][NMeF][NMeL]D[NMeA]PA-Piperidide; lactam N-9)
17
CCCCCC[C@@H]1NC(=O)[C@H](CC(C)C)N(C)C(=O)CN(C)C(=O)[C@H](CC(C)C)NC(=O)C[C@H](C)NC(=O)[C@H](CC(C)C)N(C)C(=O)[C@H](CC(C)C)N(C)C(=O)[C@H](CC(C)C)N(C)C(=O)[C@@H](C)NC(=O)[C@H](CO)NC(=O)[C@H](CC(C)C)N(C)C1=O [DP-647] (cyclo([Aoc(2)][NMeL]S[dA][NMeL][NMeL][NMeL][β3hA]L[Sar][NMeL]))
132
CC(C)C[C@H]1C(=O)N(C)[C@@H](Cc2ccccc2)C(=O)N[C@@H]([C@@H](C)O)C(=O)N(C)[C@@H](C)C(=O)N[C@@H](C(C)C)C(=O)N(C)[C@@H](CC(C)C)C(=O)N(C)[C@@H](CC(C)C)C(=O)N[C@H](C(=O)N(C)[C@@H](Cc2ccccc2)C(=O)N[C@@H](C)C(=O)N2CCCCC2)CC(=O)N(C)CCC(=O)N1C [DP-201] ([NMeβAla][NMeL][NMeF]T[NMeA]V[NMeL][NMeL]D[NMeF]A-Piperidide; lactam N-9)
209
CC(C)C[C@H]1C(=O)N(C)[C@@H](CC(C)C)C(=O)N[C@@H](C(C)C)C(=O)N[C@H](C(=O)N(C)[C@@H](Cc2ccccc2)C(=O)N(C)[C@@H](Cc2ccccc2)C(=O)N[C@@H](C)C(=O)N2CCCCC2)CC(=O)N(C)CCC(=O)N(C)[C@@H](C)C(=O)N(C)[C@@H](Cc2ccccc2)C(=O)N[C@@H]([C@@H](C)O)C(=O)N(C)CC(=O)N1C [DP-212] ([NMeβAla][NMeA][NMeF]T[Sar][NMeL][NMeL]VD[NMeF][NMeF]A-Piperidide; lactam N-9)
27

Recorded microsomal CLint at 1 uM for C=C1CCC(=O)NCC(=O)N(C)[C@@H](C)C(=O)N[C@@H](CC(C)C)C(=O)N[C@@H](C(C)C)C(=O)N(C)[C@@H](CC(C)C)C(=O)N[C@@H](Cc2ccccc2)C(=O)N(C)[C@@H](Cc2ccccc2)C(=O)N[C@@H]([C@@H](C)CC)C(=O)N(C)[C@@H](C)C(=O)N[C@@H](CC(C)C)C(=O)N[C@@H]([C@@H](C)O)C(=O)N[C@H](C(=O)N2CCCCC2)Cc2ccc1cc2 [DP-887] , please?
103
